# System: MIA PaCa-2 cells
# Procedure details: MIA PaCa-2 CTG Assay (CellTiter-Glo cell viability)
# Assay type: cell-based, human
# Study conditions: Homo sapiens; Mia PaCa-2, 72 h; second value of the cell; read-out: G12D/C/V Cell Proliferation CTG (72 h) Mia PaCa-2
# Experimental: MIA PaCa-2 CTG Assay Protocol MIA PaCa-2 (human pancreatic carcinoma; ATCC CRL-1420) cells were cultured in RPMI 1640 medium containing 10% fetal bovine serum and 1× penicillin/streptomycin/L-glutamine. […] Cell viability was measured using a CellTiter-Glo® Luminescent Cell Viability Assay kit (Promega) according to the manufacturer's protocol. The luminescence signal of treated samples was normalized to DMSO control, and data were analyzed using a 4-parameter logistic model to calculate IC50 values.
Readout type: IC50 (µM)

• CN1C[C@H](F)C[C@H]1COc1nc2c3cnc(c(F)c3n1)-c1c(c(Cl)cc3[nH]ncc13)CCCCC(=O)O[C@@H]1CCCCN2C1 [Example 85] = 0.4

(A) O=C1OCCCc2c(Cl)cc3[nH]ncc3c2-c2ncc3c(nc(OC[C@@]45CCCN4C[C@H](F)C5)nc3c2F)N2CCOC[C@](CF)(C2)O1 [Example 311]
(B) O=C1OCCc2c(Cl)cc3[nH]ncc3c2-c2ncc3c(nc(OC[C@@]45CCCN4C[C@H](F)C5)nc3c2F)N2CCCCC(CO1)C2 (stereo partly shown) [Example 222]
Data request: Looking only at measured IC50, which entry is lower, A or B ? Use the label to indicate which entry you chose.
Data returned: A

(a) CN(C)CC1(COc2nc3c4cc(F)c(c(F)c4n2)-c2c(c(Cl)cc4[nH]ncc24)CCCOC(=O)O[C@@H]2COCCN3C2)CC1 [Example 305]
(b) Cc1cc2[nH]ncc2c2c1CCCOC(=O)O[C@]1(C)COCCN(C1)c1nc(OC[C@@H]3CCCN3C)nc3c(F)c-2ncc13 [Example 183]
(c) Cc1cc2[nH]ncc2c2c1CCOC(=O)O[C@H]1C[C@@]3(CCCN(C3)c3nc(OC[C@@]45CCCN4C[C@H](F)C5)nc4c(F)c-2ncc34)C1 [Example 194]
Data request: Order the items by recorded IC50; the first position goes to the largest value. // ordering of labels required in reply
Data returned: a, b, c

----------
# System under test: His-tagged KRAS G12D protein (Homo sapiens (Human), UniProt P01116, G12D)
# Sequence (P01116 other isoform, or with tags, fused parts or gaps G12D): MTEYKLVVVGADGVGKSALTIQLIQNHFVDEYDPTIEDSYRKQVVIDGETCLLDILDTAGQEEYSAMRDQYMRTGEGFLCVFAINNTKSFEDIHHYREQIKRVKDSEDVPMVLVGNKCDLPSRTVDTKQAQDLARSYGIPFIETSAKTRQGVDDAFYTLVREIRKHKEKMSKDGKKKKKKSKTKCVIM
# Procedure details: KRAS G12D TR-FRET Assay
# Assay type: binding
# Study conditions: read-out: KRAS G12D Binding IC50
pIC50: −log10 of the molar value. Where a name gives a salt, the structure may show the parent alone.
Readout type: pIC50

• Cc1cc2[nH]ncc2c2c1CCCn1ncc(n1)C1CCCN(C1)c1nc(OC[C@@]34CCCN3C[C@H](F)C4)nc3c(F)c-2ncc13 (stereo partly shown) [Example 158] = 7.70
• O=C1OCCCc2c(Cl)cc3[nH]ncc3c2-c2ncc3c(nc(OC[C@@]45CCCN4C[C@H](F)C5)nc3c2F)N2CCCC[C@@](CF)(C2)O1 [Example 339] = 5.87
• O=C1CCCc2c(F)ccc3cc(O)cc(c23)-c2ncc3c(nc(OC[C@@]45CCCN4C[C@H](F)C5)nc3c2F)N2CCC[C@](CF)(C2)O1 [Example 42] = 8.40
• O=C1OCCCc2c(F)cc3[nH]ncc3c2-c2ncc3c(nc(OC[C@@]45CCCN4C[C@H](F)C5)nc3c2F)N2CCC[C@H](C2)O1 [Example 112] = 8.30

(1) C[C@@]12COCCN(C1)c1nc(OC[C@@]34CCCN3C[C@H](F)C4)nc3c(F)c(ncc13)-c1c3c(cc4[nH]ncc14)CC[C@@H]3CCOC(=O)O2 [Example 366]
(2) C[C@@]12COCCN(C1)c1nc(OC[C@@H]3CC[C@H]4COCCN43)nc3c(F)c(ncc13)-c1c(c(Cl)cc3[nH]ncc13)CCCOC(=O)O2 [Example 309]
(3) C[C@@]12CCCN(C1)c1nc(OC[C@@]34CCCN3C[C@H](F)C4)nc3c(F)c(ccc13)-c1cc(O)cc3ccc(F)c(c13)CCCC(=O)N2 [Example 16, bis(2,2,2-trifluoroacetate)]
Data request: Rank the items in ascending order with respect to pIC50. // ordering of labels required in reply
Data returned: 1, 2, 3

(a) Fc1c2ncc3c(nc(OC[C@@]45CCCN4C[C@H](F)C5)nc13)N1CCC[C@H](C1)c1cnn(n1)CCCc1c(Cl)cc3[nH]ncc3c1-2 [Example 259]
(b) Cc1cc2[nH]ncc2c2c1CCCCO[C@@H](C)[C@@H]1CN(CCO1)c1nc(OC[C@@]34CCCN3C[C@H](F)C4)nc3c(F)c-2ncc13 [Example 244]
(c) C[C@@]12CCCN(C1)c1nc(OC[C@@]34CCCN3C[C@H](F)C4)nc3c(F)c(ncc13)-c1cccc3cccc(c13)CCCOC(=O)O2 [Example 121]
Data request: Order the items by recorded pIC50; the first position goes to the largest value. // ordering of labels required in reply
Data returned: a, b, c
(a: 8.40, b: 7.57, c: 6.29)

(1) CC12CCCN(C1)c1nc(OC[C@@]34CCCN3C[C@H](F)C4)nc3c(F)c(ncc13)-c1cccc3ccc(F)c(c13)CCOC(=O)N2 (mixture of isomers) [Example 76]
(2) C[C@@]12CCCN(C1)c1nc(OC[C@@]34CCCN3C[C@H](F)C4)nc3c(F)c(ncc13)-c1cc(O)cc3c1[C@H](CCCC(=O)N2)CCC3 [Example 28, 2,2,2-trifluoroacetate salt]
Data request: Pick one: 1 or 2 . Which has the bigger pIC50 number? Use the label to indicate which entry you chose.
Data returned: 1
(1: 7.82, 2: 7.17)
